target: FXR (Homo sapiens, UniProt Q96RI1); test: In Vitro FXR Assay (TK): TK-ECRE-luc reporter in transfected CV-1 cells; conditions: CV-1 cells transfected with hFXR, hRXR, 18 h incubation, luminescence
Sequence (Q96RI1 whole entry): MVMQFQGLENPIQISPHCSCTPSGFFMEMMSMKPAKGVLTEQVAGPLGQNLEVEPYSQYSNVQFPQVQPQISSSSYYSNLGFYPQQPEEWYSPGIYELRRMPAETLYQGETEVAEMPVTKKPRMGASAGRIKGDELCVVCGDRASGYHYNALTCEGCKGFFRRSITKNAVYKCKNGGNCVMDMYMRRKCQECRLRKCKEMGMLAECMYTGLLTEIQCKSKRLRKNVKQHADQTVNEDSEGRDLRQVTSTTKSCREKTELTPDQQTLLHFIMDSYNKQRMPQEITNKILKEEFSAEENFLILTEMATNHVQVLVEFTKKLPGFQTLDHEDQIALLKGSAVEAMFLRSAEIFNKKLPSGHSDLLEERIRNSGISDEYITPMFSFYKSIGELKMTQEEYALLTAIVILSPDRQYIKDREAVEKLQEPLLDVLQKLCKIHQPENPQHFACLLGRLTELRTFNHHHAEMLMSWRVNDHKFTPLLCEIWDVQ
Sequence (P19793 whole entry partner): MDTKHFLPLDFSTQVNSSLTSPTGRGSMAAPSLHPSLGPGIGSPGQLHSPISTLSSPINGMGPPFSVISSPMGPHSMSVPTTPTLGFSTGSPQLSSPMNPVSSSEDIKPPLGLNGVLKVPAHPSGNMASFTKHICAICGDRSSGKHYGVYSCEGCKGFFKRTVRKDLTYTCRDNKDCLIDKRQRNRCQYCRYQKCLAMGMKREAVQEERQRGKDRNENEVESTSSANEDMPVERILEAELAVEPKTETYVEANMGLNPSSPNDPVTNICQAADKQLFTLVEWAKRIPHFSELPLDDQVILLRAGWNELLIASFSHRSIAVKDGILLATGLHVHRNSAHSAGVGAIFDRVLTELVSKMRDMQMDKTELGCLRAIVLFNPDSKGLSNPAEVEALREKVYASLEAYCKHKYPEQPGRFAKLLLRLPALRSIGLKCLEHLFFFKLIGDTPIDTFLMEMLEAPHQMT
pEC50: −log10 of the molar value.
# reported pEC50; entries follow

Below, each entry is followed by its recorded pEC50 result.
{"compound": "COC(=O)/C=C/c1cccc(N(Cc2ccc(N3CCOCC3)cc2)C(=O)C2CCCCC2)c1", "experimental-value": "5.00 to 6.00"}
{"compound": "COC(=O)/C=C/c1cccc(N(Cc2ccc(-c3ccc(N(C)C)cc3)cc2)C(=O)C2CCCCCC2)c1", "experimental-value": "≥ 6.00"}
{"compound": "COC(=O)/C=C/c1cccc(N(Cc2ccc(NCc3ccccc3)cc2)C(=O)C2CCCCC2)c1", "experimental-value": "5.00 to 6.00"}
{"compound": "CN(C)c1ccc(-c2ccc(CN(c3cccc(/C=C/C(=O)O)c3)C(=O)[C@H]3CC[C@H](O)CC3)cc2)cc1", "experimental-value": "< 5.00"}
{"compound": "COC(=O)/C=C/c1cccc(N(Cc2ccc(-c3ccc4ocnc4c3)cc2)C(=O)C2CCCCC2)c1", "experimental-value": "5.00 to 6.00"}
{"compound": "COC(=O)/C=C/c1cccc(N(Cc2ccc(-c3cccc(O)c3)cc2)C(=O)C2CCCCC2)c1", "experimental-value": "< 5.00"}
{"compound": "COC(=O)CCc1cccc(N(Cc2ccc(-c3ccc(N(C)C)cc3)cc2)C(=O)C2CCCCC2)c1C", "experimental-value": "5.00 to 6.00"}
{"compound": "COC(=O)/C=C/c1cccc(N(Cc2ccc(-c3cccc(C(=O)OC)c3)cc2)C(=O)C2CCCCC2)c1", "experimental-value": "5.00 to 6.00"}

Request: Please give the measured pEC50 for this compound: COC(=O)/C=C/c1cccc(N(Cc2ccc(-c3ccc4c(ccn4C)c3)cc2)C(=O)C2CCCCC2)c1
Result: ≥ 6.00

Request: Look at this compound and give its reported pEC50. COC(=O)/C=C/c1cccc(N(Cc2ccc(-c3ccc(S(C)(=O)=O)cc3)cc2)C(=O)C2CCCCC2)c1
Result: 5.00 to 6.00

Request: What value of measured pEC50 is listed for COC(=O)CC(C)c1cccc(N(Cc2ccc(-c3ccc(N(C)C)cc3)cc2)C(=O)C2CCCCC2)c1 (centres unmarked) ?
Result: 5.00 to 6.00

Request: Query: pEC50; subject: COC(=O)/C=C/c1cccc(N(Cc2ccc(-c3ccccc3C)cc2)C(=O)C2CCCCC2)c1
Result: 5.00 to 6.00

Request: # query: pEC50 of entry COC(=O)/C=C/c1cccc(N(Cc2ccc(N3CCCCC3)cc2)C(=O)C2CCCCC2)c1
Result: 5.00 to 6.00

Request: // pEC50 lookup, key: COC(=O)/C=C/c1cccc(N(Cc2ccc(-c3ccc(C(=O)OC)cc3)cc2)C(=O)C2CCCCC2)c1
Result: 5.00 to 6.00

----------
molecular target: FXR (Homo sapiens); assay: In Vitro FXR Assay (TK): TK-ECRE-luc reporter in transfected CV-1 cells; conditions: CV-1 cells transfected with hFXR, hRXR, 18 h incubation, luminescence
Each record here notes measured EC50.

{"smiles-record": "CN(C)CCOC(=O)/C=C/c1cccc(N(Cc2ccc(-c3ccc(N(C)C)cc3)cc2)C(=O)C2CCCCC2)c1", "EC50": "> 10 µM"}
{"smiles-record": "COC(=O)/C=C/c1cccc(N(Cc2ccc(-c3ccc(OC)c(C)c3)cc2)C(=O)C2CCNCC2)c1", "EC50": "> 10 µM"}

Request: Param readout= EC50; system= FXR (Homo sapiens); entry= COC(=O)/C=C/c1cccc(N(Cc2ccc(-c3ccc(OC)c(C)c3)cc2)C(=O)C2CCN(S(C)(=O)=O)CC2)c1 ; returns value.
Result: 1 to 10 µM

Request: # get_value(readout= EC50, system= FXR (Homo sapiens)) for COC(=O)/C=C/c1cccc(N(Cc2ccc(-c3ccc(N(C)C)cc3)cc2)C(=O)c2cccc(OC)c2)c1
Result: 1 to 10 µM
